Molecular target: T1, mouse tissue factor pathway inhibitor (TFPI) (mouse, UniProt O54819 29-289, limits assumed)
T1 construct: bought; also called mTFPI; murine TFPI
T1 sequence (looked up): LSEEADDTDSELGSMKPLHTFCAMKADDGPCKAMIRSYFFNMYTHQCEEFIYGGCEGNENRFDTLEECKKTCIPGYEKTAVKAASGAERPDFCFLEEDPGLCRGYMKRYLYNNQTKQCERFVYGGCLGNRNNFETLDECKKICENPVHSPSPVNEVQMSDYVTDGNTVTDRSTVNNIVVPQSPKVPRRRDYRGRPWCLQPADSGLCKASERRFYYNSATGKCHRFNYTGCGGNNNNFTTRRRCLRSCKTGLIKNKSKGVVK
Assay: SPR, TFPI immobilized
Quick reference: koff of the listed items.
# number only, unit s⁻¹ dropped from output

>  <binder>
B41.2 (4B7 HC N32D+D62R+Y112D/LC S32R+D33F+N35I) (Fab, V domains shown) VH: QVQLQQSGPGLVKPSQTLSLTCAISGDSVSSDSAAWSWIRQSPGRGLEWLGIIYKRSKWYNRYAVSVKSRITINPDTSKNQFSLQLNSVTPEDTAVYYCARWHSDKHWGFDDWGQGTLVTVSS VL: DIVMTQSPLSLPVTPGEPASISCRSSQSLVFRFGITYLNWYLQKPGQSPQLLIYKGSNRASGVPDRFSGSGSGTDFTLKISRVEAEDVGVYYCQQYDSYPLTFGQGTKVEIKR

>  <uom>
s⁻¹

>  <koff>
0.000245

$$$$
>  <binder>
4B7 wild-type Fab (Fab, V domains shown, Fab with HA (or c-myc) and 6xHis tag at the C-terminus of the heavy chain; also called 4B7wt; parental 4B7) VH: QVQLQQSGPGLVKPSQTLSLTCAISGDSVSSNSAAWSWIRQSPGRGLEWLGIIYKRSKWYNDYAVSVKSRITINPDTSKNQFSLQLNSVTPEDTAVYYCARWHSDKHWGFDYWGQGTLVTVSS VL: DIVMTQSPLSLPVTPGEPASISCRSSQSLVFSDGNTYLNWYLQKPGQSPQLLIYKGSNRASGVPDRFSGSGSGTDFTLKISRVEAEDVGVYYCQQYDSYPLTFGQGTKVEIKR

>  <uom>
s⁻¹

>  <koff>
0.172

$$$$

Query string: I am curious: what koff value has been reported for gB9.7 (4B7 HC Q1E+N32D+G44S+K55Y+D62R+Y112D/LC S32R+N35I) (Fab, V domains shown) VH: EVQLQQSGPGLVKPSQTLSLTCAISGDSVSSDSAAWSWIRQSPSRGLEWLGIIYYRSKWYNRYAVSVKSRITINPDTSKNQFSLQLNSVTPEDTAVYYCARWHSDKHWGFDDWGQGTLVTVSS VL: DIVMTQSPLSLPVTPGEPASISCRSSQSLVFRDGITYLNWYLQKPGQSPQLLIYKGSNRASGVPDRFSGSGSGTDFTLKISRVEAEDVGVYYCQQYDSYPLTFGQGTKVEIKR ?
Result string: 0.000185
